organism: Canis familiaris; assay: Concentration of the test compound required to inhibit the auto oxidative lipid peroxidations in canine brain homogenates by 50% was determined; format: functional; conditions: Canis lupus familiaris
PROPERTY MEASURED: IC50 (µM)

P: CC(=O)N(CC(O)CN1CCN(CCCC(c2ccc(F)cc2)c2ccc(F)cc2)CC1)c1ccccc1 (centres undefined)
Q: OC(CNCc1ccccc1)CN1CCN(CCCC(c2ccc(F)cc2)c2ccc(F)cc2)CC1 (centres undefined)
R: Cc1c(C)c2c(c(C)c1O)CC[C@@](C)(CCC[C@H](C)CCC[C@H](C)CCCC(C)C)O2 [ALPHA-TOCOPHEROL]
Q) hey, can you rank those molecules up there by IC50? biggest number first please Submit the labels in the order that the ranking request calls for.
A) P, Q, R
